target: TRKB-ECD-His (extracellular domain of TRKB) (Homo sapiens, UniProt Q16620); construct: extracellular domain of TRKB (TRKB-ECD) (residues 32–429, XP_016870240); Saccharomyces cerevisiae α-factor secretion signal (N, cleaved yes); assay: Tryptophan fluorescence quenching assay; conditions: TRKB-ECD-His 50 nM in PBS; excitation 295 nm, emission 330 nm; compounds 0–1000 nM; read-out: TRKB-ECD binding affinity (KD)
Sequence (Q16620 32-429): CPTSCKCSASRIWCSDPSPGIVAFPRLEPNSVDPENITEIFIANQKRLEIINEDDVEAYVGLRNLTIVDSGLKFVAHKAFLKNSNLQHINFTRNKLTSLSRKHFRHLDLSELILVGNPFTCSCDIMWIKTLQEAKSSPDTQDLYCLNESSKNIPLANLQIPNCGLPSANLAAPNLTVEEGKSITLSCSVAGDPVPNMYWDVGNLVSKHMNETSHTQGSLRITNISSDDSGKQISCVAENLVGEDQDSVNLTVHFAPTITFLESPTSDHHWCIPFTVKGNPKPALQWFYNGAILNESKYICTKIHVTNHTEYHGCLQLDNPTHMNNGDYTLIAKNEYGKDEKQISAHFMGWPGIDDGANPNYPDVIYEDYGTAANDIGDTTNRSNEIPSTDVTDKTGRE
measured attribute: Kd (µM)

Previously resolved entries follow.
# compound, u, result number
rows = [
    ("O=c1cc(-c2ccccc2)oc2c(O)c(O)ccc12 [7,8-DHF, 7,8-dihydroxyflavone, reference compound]", "µM", 0.016),
    ("CCOc1ccc2cc(C(=O)c3ccccc3)c(=O)oc2c1", "µM", 0.008),
]

(P) O=C(c1ccccc1)c1cc2ccc(O)cc2oc1=O
(Q) O=C(c1ccccc1)c1cc2c(O)cccc2oc1=O [LM-031, 3-benzoyl-5-hydroxychromen-2-one]
Ask: // pick min by Kd: P , Q Reply briefly: the label of your chosen item.
Reply: P
(P: 0.0065 µM, Q: 0.0127 µM)

----------
Test: High-content analysis of ΔK280 tauRD-DsRed fluorescence and cell number (folding reporter)
Assay type: cell-based, human
Conditions: human; induced ΔK280 tauRD-DsRed SH-SY5Y; compounds 2.5–10 µM; read-out: IC50 cytotoxicity based on the cell number analyzed
Experimental: On day 1, ∆K280 tauRD-DsRed SH-SY5Y cells were seeded in a 96-well plate (3 × 10^4/well), with retinoic acid (10 µM; Sigma-Aldrich) added to induce neuronal differentiation. […] […] For ROS measurement, dichloro-dihydro-fluorescein diacetate (DCFH-DA, 10 µM; Invitrogen, Carlsbad, CA, USA) was added to the cells on day 8 and incubated at 37 °C for 30 min.
Entries and their measured IC50 at 6 days follow.
Please state the figure in µM; there is no need to write the unit.

Previously resolved entries follow.
# compound, IC50 at 6 days (µM)
records = [
    ("O=C(c1ccccc1)c1cc2c(O)cccc2oc1=O [LM-031, 3-benzoyl-5-hydroxychromen-2-one]", 43),
    ("CC(=O)Oc1ccc2cc(C(=O)c3ccccc3)c(=O)oc2c1", 25),
    ("O=C(c1ccccc1)c1cc2ccc(O)cc2oc1=O", 24),
    ("COc1ccc2cc(C(=O)c3ccccc3)c(=O)oc2c1", 29),
    ("Nc1c(/N=N/c2ccc(-c3ccc(/N=N/c4cc(S(=O)(=O)O)c5ccccc5c4N)cc3)cc2)cc(S(=O)(=O)O)c2ccccc12 [Congo red, reference compound]", 45),
]

Ask: Quick check: IC50 at 6 days of CCOc1ccc2cc(C(=O)c3ccccc3)c(=O)oc2c1 ?
Reply: 25

----------
target: E. coli-expressed ΔK280 tauRD protein (Homo sapiens, UniProt P10636, DEL597-597); construct: assessed by using E. coli-expressed ΔK280 tauRD protein; assay: Anti-ΔK280 tauRD aggregation assay (thioflavin T); details: compounds tested 1–10 μM, 20 μM protein, 48 h, linear interpolation, read-out: EC50 for ΔK280 tauRD aggregation inhibition
Sequence (P10636 with tags, fused parts or gaps DEL597-597): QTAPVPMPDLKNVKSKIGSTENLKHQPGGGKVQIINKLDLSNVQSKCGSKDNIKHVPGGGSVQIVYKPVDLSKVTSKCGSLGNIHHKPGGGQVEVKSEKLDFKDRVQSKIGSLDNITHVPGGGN
pEC50: −log10 of the molar value.
measured attribute: pEC50

# molecule, target entity, pEC50
rows = [
    ("O=C(c1ccccc1)c1cc2c(O)cccc2oc1=O [LM-031, 3-benzoyl-5-hydroxychromen-2-one]", "E. coli-expressed ΔK280 tauRD protein (Homo sapiens, UniProt P10636, DEL597-597)", 4.44),
    ("COc1ccc2cc(C(=O)c3ccccc3)c(=O)oc2c1", "E. coli-expressed ΔK280 tauRD protein (Homo sapiens, UniProt P10636, DEL597-597)", 4.68),
]

(P) CCOc1ccc2cc(C(=O)c3ccccc3)c(=O)oc2c1
(Q) O=C(c1ccccc1)c1cc2ccc(O)cc2oc1=O
(R) CC(=O)Oc1ccc2cc(C(=O)c3ccccc3)c(=O)oc2c1
Ask: Please order the records by their reported pEC50, lowest number first. Rank them, then answer with their labels in that order.
Reply: P, R, Q
(P: 4.08, R: 4.85, Q: 5.10)

Cited source: paper PMC9654711
